Biological target: Delta-type opioid receptor (Homo sapiens)
Sequence (P41143 whole entry): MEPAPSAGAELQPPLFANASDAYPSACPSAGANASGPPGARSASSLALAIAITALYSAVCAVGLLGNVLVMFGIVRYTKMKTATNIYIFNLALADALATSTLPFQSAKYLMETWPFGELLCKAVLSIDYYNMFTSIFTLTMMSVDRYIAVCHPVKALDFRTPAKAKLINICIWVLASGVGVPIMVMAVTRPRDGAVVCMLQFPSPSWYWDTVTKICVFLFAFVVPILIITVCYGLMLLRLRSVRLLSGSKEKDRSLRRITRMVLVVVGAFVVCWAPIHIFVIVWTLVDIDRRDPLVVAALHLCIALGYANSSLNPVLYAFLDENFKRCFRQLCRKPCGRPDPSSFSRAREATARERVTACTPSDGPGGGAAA
Experiment: Displacement of [3H]diprenorphine from human opioid delta receptor expressed in HEK293 cells after 120 mins by scintillation counting
Would you kindly list Ki for each of these molecules?

Any idea what Ki was measured for NC(=O)c1ccc(Oc2ccc(CNCc3ccccc3)cc2)nc1 ?
27.6 nM

Any idea what Ki was measured for COC(=O)N1CCN(C(=O)Cc2ccc(Cl)c(Cl)c2)[C@H](CN2CCCC2)C1 ?
422 nM

Any idea what Ki was measured for NC(=O)c1ccc(Oc2ccc(CN3CCCC3c3cccnc3)cc2)nc1 (racemic) ?
> 500 nM

Any idea what Ki was measured for NC(=O)c1ccc(Oc2ccc(CN3CCCC3c3ccccc3)cc2)nc1 (racemic) ?
> 500 nM

Any idea what Ki was measured for NC(=O)c1ccc(Oc2ccc(CN3CCC[C@@H]3c3cccc(F)c3)cc2)c(F)c1 ?
> 500 nM

Any idea what Ki was measured for CC1(C)CN(Cc2ccc(Oc3ccc(C(N)=O)cn3)cc2)[C@H]1c1ccccc1 ?
> 500 nM
